tested on: JJN-3 (NIK translocated) multiple myeloma cells; assay: Antiproliferative activity on JJN-3 multiple myeloma cells (CellTiter-Glo, 96 hr), Biological Assay C; format: cell-based, human; conditions: Homo sapiens, JJN-3, 96 h, JJN-3 (NIK translocated) cells, averaged values, read-out: JJN-3 Proliferation inhibition (IC50 (nM))
MEASURED ATTRIBUTE: IC50 (nM)

Exercise: Return IC50 for the following compound: Cc1cc(C(=O)NC2CCOCC2)ccc1Nc1nccc(-c2cc(C#N)c3c(c2)C(C)(C)CN3)n1 [Compound 78]
Key: 87

Exercise: Return IC50 for the following compound: COCCOc1cc(F)ccc1Nc1nccc(-c2cc(C#N)c3c(c2)[C@@](C)(CO)CN3)n1 [Compound 69]
Key: 1020

Exercise: Return IC50 for the following compound: Cc1cc(CCCN)c(C#N)cc1Nc1nccc(-c2cc(C#N)c3c(c2)[C@@](C)(CO)CN3)n1 [Compound 170]
Key: 81

Exercise: Return IC50 for the following compound: Cc1ccc(CN2CC(F)C2)cc1Nc1nccc(-c2cc(C#N)c3c(c2)[C@@](C)(CO)CN3)n1 [Compound 220]
Key: 4570

Exercise: Return IC50 for the following compound: COc1ccc(C#N)cc1Nc1nccc(-c2cc(C#N)c3c(c2)C(C)(CO)CN3)n1 (stereo not drawn) [Compound 31]
Key: 2340

Exercise: Return IC50 for the following compound: CNC(=O)c1cc(Nc2nccc(-c3cc(C#N)c4c(c3)[C@@](C)(CO)CN4)n2)c(F)cc1F [Compound 165]
Key: 1120

[P] CN1CCC(Oc2ccc(Cl)cc2Nc2nccc(-c3cc(C#N)c4c(c3)C(C)(CO)CN4)n2)CC1 (stereo not drawn) [Compound 25]
[Q] COc1cc(C(=O)N2CC3C(CO)C3C2)c(Cl)cc1Nc1nccc(-c2cc(C#N)c3c(c2)C(C)(C)CN3)n1 (stereo not drawn) [Compound 117]
Exercise: Pick one: P or Q . Which has the bigger IC50 number? # answer = label of selected item
Key: Q
